Target: T1, UPF1 WT (human, UniProt Q92900-2 1-1118)
T1 sequence: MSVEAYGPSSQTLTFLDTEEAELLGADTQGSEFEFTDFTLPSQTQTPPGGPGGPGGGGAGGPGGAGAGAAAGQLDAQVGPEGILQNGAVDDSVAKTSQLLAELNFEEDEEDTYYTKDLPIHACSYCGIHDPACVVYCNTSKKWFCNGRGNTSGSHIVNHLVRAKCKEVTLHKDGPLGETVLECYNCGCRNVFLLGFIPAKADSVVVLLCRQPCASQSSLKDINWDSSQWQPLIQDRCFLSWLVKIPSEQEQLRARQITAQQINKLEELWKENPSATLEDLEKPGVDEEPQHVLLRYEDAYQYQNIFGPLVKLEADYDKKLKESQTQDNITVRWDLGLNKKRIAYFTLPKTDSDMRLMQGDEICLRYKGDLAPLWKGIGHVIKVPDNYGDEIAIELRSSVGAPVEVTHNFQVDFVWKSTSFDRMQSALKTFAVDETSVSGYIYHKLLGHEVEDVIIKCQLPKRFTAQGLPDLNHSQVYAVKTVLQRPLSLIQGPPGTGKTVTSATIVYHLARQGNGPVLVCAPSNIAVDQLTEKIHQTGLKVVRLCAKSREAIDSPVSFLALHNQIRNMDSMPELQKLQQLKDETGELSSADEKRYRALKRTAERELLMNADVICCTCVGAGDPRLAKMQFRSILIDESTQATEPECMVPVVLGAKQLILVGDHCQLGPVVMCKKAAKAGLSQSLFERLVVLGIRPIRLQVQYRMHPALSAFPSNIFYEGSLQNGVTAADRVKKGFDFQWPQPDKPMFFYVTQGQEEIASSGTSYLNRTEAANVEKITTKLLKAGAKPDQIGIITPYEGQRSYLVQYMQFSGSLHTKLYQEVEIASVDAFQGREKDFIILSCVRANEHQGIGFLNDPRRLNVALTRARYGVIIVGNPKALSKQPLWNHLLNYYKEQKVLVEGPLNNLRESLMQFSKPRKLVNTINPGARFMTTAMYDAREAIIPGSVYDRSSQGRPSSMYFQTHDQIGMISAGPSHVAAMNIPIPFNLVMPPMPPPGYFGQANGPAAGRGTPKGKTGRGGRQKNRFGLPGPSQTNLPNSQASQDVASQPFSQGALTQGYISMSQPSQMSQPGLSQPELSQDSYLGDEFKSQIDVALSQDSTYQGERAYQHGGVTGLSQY
Assay: MST
pKd: −log10 of the molar value.
measured.endpoint: pKd

INSERT INTO assay_data (binder, measured_endpoint, test_result) VALUES
  ('UUUUUUUUUUUUUUUUUUUUUUUUUUUUUU (ssRNA) [U30 RNA]', 'pKd', 8.83);
